The variants listed here are annotated with their protein stability index.
B1: UFD1L (parent)
chain: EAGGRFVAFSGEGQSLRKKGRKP

Variants of: B1
Test: protein stability index of a GFP-peptide fusion (GPS, HEK-293T) (PSI 1-6); higher = more stable;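 further: lentivirally expressed fusions sorted by FACS into six bins by GFP to DsRed ratio, PSI derived from sequencing read proportions per bin multiplied by bin number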
Details: c terminus: native
Answer with a bare number; do not write a unit.

Return reported protein stability index; argument: `G3Q`
2.16

Look at this variant and give its reported protein stability index. `R21Y`
4.7

Given the entry `R5T` , report its measured protein stability index.
3.2

So what's the measured protein stability index for this one? `K19E`
1.58

Could you tell me which protein stability index is on file for `G4T` ?
1.5

Entry `P23V` : reported protein stability index = ?
4.09

Please look up its protein stability index: `P23Q`
4.65

Entry `E1D` : reported protein stability index = ?
2.33

Entry `K19P` : reported protein stability index = ?
1.07

I have this variant here, `G11C` , and I need its recorded protein stability index.
2.52

Recorded protein stability index of `R21M` , please.
4.38

Suppose we examine the variant `G13R` ; what protein stability index value has been reported?
1.35
